MEASUREMENT_PROTOCOL: Solubility of saturated solutions in D.I. water, quantified by LC-MS
Type: physicochemical
DETAILS: thermodynamic from solid, saturated solution in D.I. water, shaken 3 hours at room temperature, average of four replicates
ENDPOINT_LABEL: solubility at 3 h

• Cc1cccc(F)c1C(=O)N1CCC[C@H](C(=O)Nc2ccc(CO)c(C(F)(F)F)c2)[C@@H]1c1ccc(NC2CCCC2)cc1 = 1.2 µg/mL

---

MEASUREMENT_PROTOCOL: physchem
Format: physicochemical
DETAILS: 25 °C, pH 7, aqueous buffer, thermodynamic from solid
ENDPOINT_LABEL: solubility (µg/mL)

• Cc1ccc(NC(=O)[C@H]2CCCN(C(=O)c3c(C)cccc3F)[C@H]2c2ccc(NC3CCCC3)cc2)cc1C(F)(F)F = 0.053

---

MEASUREMENT_PROTOCOL: Solubility in Milli-Q water, examined with naked eye
Assay type: physicochemical
DETAILS: thermodynamic from solid; arbitrary amount in 1 mL Milli-Q water, room temperature, clear solution by naked eye; not the maximum solubility; read-out: Solubility in H2O
ENDPOINT_LABEL: solubility

* Cc1cccc(F)c1C(=O)N1CCC[C@H](C(=O)Nc2ccc(COC(=O)CN)c(C(F)(F)F)c2)[C@@H]1c1ccc(NC2CCCC2)cc1 | > 10000 µg/mL
* Cc1cccc(F)c1C(=O)N1CCC[C@H](C(=O)Nc2ccc(COC(=O)[C@H](C)N)c(C(F)(F)F)c2)[C@@H]1c1ccc(NC2CCCC2)cc1 | > 5000 µg/mL
* Cc1cccc(F)c1C(=O)N1CCC[C@H](C(=O)Nc2ccc(COC(=O)c3cccc(CN4CCN(C)CC4)c3)c(C(F)(F)F)c2)[C@@H]1c1ccc(NC2CCCC2)cc1 | > 1000 µg/mL
* Cc1ccc(NC(=O)[C@H]2CCCN(C(=O)c3c(C)cccc3F)[C@H]2c2ccc(N(C(=O)OCOP(=O)(O)O)C3CCCC3)cc2)cc1C(F)(F)F | > 10000 µg/mL
* Cc1ccc(NC(=O)[C@H]2CCCN(C(=O)c3c(C)cccc3F)[C@H]2c2ccc(N(C(=O)CN(C)C)C3CCCC3)cc2)cc1C(F)(F)F | > 10000 µg/mL
* Cc1ccc(N(COP(=O)(O)O)C(=O)[C@H]2CCCN(C(=O)c3c(C)cccc3F)[C@H]2c2ccc(NC3CCCC3)cc2)cc1C(F)(F)F | > 5000 µg/mL
* Cc1ccc(NC(=O)[C@H]2CCCN(C(=O)c3c(C)cccc3F)[C@H]2c2ccc(N(C(=O)CN)C3CCCC3)cc2)cc1C(F)(F)F | > 5000 µg/mL
